All values here come from patent US11028090B2.

Molecular target: BRD4 (BD1+BD2) bromodomain (Homo sapiens (Human), UniProt O60885)
Assay: BRD4 binding inhibition (AlphaScreen, GST-BRD4 vs tetraacetylated histone H4 peptide)
Settings: GST-BRD4 (BD1+BD2) / biotinylated acetyl-histone H4 (Lys5,8,12,16) peptide; read-out: IC50, BRD4 binding inhibition
Protocol: A mixture comprising 100 nM GST-BRD4 (BD1+BD2) and 100 nM biotinylated acetyl-histone H4 (Lys5,8,12,16) peptide was prepared in assay buffer (50 mM HEPES pH 7.4; 25 mM NaCl; 0.05% Tween 20; 0.1% bovine serum albumin (BSA); 10 mM dithiothreitol (DTT)). […] Then, the signals were measured with PerkinElmer Envision HTS Multilabel Reader using an alpha screen protocol of PerkinElmer. […]
pIC50: −log10 of the molar value.
Items are presented alongside their recorded pIC50.

Sample records with pIC50:
Cc1nnc2c(NCCCCNC(=O)c3ccccc3)nc3cc(OC(F)(F)F)ccc3n12
≥ 7.30
Cc1nnc2c(NCCCCNC(=O)[C@@H](F)C(C)C)nc3cc(N4C[C@@H](C)O[C@@H](C)C4)ccc3n12
≥ 7.30
COCCOc1ccc2c(c1)nc(NCCCCNC(=O)OC1CCCC1)c1nnc(C)n12
≥ 8.00

In the following, a different compound is considered.
Exercise: Which pIC50 is listed for "COc1cc2nc(NCCCCC(=O)NCc3ccco3)c3nnc(C)n3c2cc1OC" ?
Key: ≥ 7.30
